// reported GI50 per item
# Test system: SF-268 CNS
# assay.text: NCI tumour cell line growth inhibition, 48 h

[
  {
    "molecule": "CNCCCNCCCN1C(=O)c2ccc3c4c(ccc(c24)C1=O)C(=O)N(CCCNCc1ccccc1OC)C3=O",
    "system": "SF-268 CNS",
    "GI50": "1.03 µM"
  },
  {
    "molecule": "OCc1ccc(N(CCN2CCCC2)Cc2ccc(F)cc2)cc1Cl",
    "system": "SF-268 CNS",
    "GI50": "21 µM"
  },
  {
    "molecule": "COc1ccc2c(c1)/C(=C/c1cc(OC)c(OC)c(OC)c1)C(=O)N2C",
    "system": "SF-268 CNS",
    "GI50": "2.39 µM"
  },
  {
    "molecule": "C=C1C[C@@]2(C)C(CC[C@]3(C)C2CC=C2C4CC(C)(C)C[C@@H](OC(=O)/C(C)=C\\C)[C@]4(C(=O)O)CC[C@]23C)C(C)(C)C1=O (some centres undefined)",
    "system": "SF-268 CNS",
    "GI50": "6.76 µM"
  },
  {
    "molecule": "C1=Nc2ccccc2C=Nc2ccccc2C=Nc2ccccc2C=Nc2ccccc21.[Cl-].[Pt+2]",
    "system": "SF-268 CNS",
    "GI50": "25.1 µM"
  },
  {
    "molecule": "N#C/C(=C\\c1ccc(Br)cc1)n1nnc2ccccc21",
    "system": "SF-268 CNS",
    "GI50": "2.62 µM"
  },
  {
    "molecule": "COC1=C(Br)C(=O)C2=C(C1=O)C1C3=C(C(=O)C=CC3=O)C2c2ccccc21 (centres undefined)",
    "system": "SF-268 CNS",
    "GI50": "18.2 µM"
  },
  {
    "molecule": "COc1ccc2c(c1)C1(C(=O)N2)C(C#N)=C(c2ccccc2)Nc2c1c(-c1ccccc1)nn2-c1ccccc1 (centres undefined)",
    "system": "SF-268 CNS",
    "GI50": "4.9 µM"
  },
  {
    "molecule": "NC1=Nc2cc(OCCCN3Cc4ccccc4C3)c(OCC3CC3)cc2C12CCCC2",
    "system": "SF-268 CNS",
    "GI50": "3.79 µM"
  }
]

----------
# Test system: K-562 leukemia
# assay.text: NCI tumour cell line growth inhibition, 48 h; in the data active = GI50 below about 0.43 µM; inactive = the rest
Outcome codes: yes (1) for active, no (0) for inactive

[
  {
    "molecule": "Fc1ccc2[nH]cc(SSc3c[nH]c4ccc(F)cc34)c2c1",
    "category": "no (0)"
  },
  {
    "molecule": "NC(=O)c1ccc2nc3c(n2c1)C(=O)C(=O)c1ccccc1-3",
    "category": "no (0)"
  },
  {
    "molecule": "N#Cc1c(N)nc(N2CCOCC2)c(C#N)c1-c1ccccc1Cl",
    "category": "no (0)"
  },
  {
    "molecule": "COc1cc(/C=C2\\C(=O)Nc3cccc(Cl)c32)cc(OC)c1OC",
    "category": "no (0)"
  },
  {
    "molecule": "OCc1ccc(N(CCN2CCCC2)Cc2ccc(F)cc2)cc1Cl",
    "category": "no (0)"
  },
  {
    "molecule": "C=C1C[C@@]2(C)C(CC[C@]3(C)C2CC=C2C4CC(C)(C)C[C@@H](OC(=O)/C(C)=C\\C)[C@]4(C(=O)O)CC[C@]23C)C(C)(C)C1=O (some centres undefined)",
    "category": "no (0)"
  },
  {
    "molecule": "COc1cc(OC)c(C(=O)/C=C/c2cccc(OC(C)=O)c2)cc1CC=C(C)C",
    "category": "no (0)"
  },
  {
    "molecule": "CCNCCCn1c2c(c3ccc([N+](=O)[O-])cc3c1=O)C(=O)c1cc(OC)cnc1-2",
    "category": "yes (1)"
  },
  {
    "molecule": "CNCCCNCCCN1C(=O)c2ccc3c4c(ccc(c24)C1=O)C(=O)N(CCCNCc1ccccc1OC)C3=O",
    "category": "yes (1)"
  },
  {
    "molecule": "NC1=Nc2cc(OCCCN3Cc4ccccc4C3)c(OCC3CC3)cc2C12CCCC2",
    "category": "no (0)"
  },
  {
    "molecule": "COc1ccc2c(c1)C1(C(=O)N2)C(C#N)=C(c2ccccc2)Nc2c1c(-c1ccccc1)nn2-c1ccccc1 (centres undefined)",
    "category": "no (0)"
  },
  {
    "molecule": "C[C@H](N)C(=O)N1C[C@H](CCCB(O)O)[C@](N)(C(=O)O)C1",
    "category": "no (0)"
  },
  {
    "molecule": "Cc1[nH]nc2c1N=C(c1ccccc1Cl)c1cc([N+](=O)[O-])ccc1N2",
    "category": "yes (1)"
  },
  {
    "molecule": "N#Cc1ccc2c(c1)C(=O)c1c-2n(CCCN)c(=O)c2cc([N+](=O)[O-])ccc12",
    "category": "yes (1)"
  }
]
